Where these numbers come from: the RNAGym collection of RNA variant scans (doi:10.1073/pnas.2313332121)

B1: TPR t1 (parent)
chain: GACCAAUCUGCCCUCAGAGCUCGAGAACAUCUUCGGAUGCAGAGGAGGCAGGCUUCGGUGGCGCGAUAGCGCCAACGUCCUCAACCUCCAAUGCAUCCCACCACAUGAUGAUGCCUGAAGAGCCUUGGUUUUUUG

- Variants of: B1
- Test description: polymerase ribozyme fitness, log enrichment relative to wild type (log ratio); higher = more active; in vitro selection for triplet polymerase activity
// values below are reported polymerase ribozyme fitness (log ratio)

>  <Mutation spec>
U54A U92C G128A

>  <polymerase ribozyme fitness (log ratio)>
-3.16

$$$$
>  <Mutation spec>
C8G G52U G60A U96G

>  <polymerase ribozyme fitness (log ratio)>
-0.693

$$$$

Fill blank: measured polymerase ribozyme fitness (log ratio) of the variant A16U C102U is ____. -3.23

Request: A84C C85U U87A C89G C124A -5.8

Request: A46U G48A C62U -2.23

Request: A83C U106A 0.162
